- assay.explanation: Lipophilicity, logD of compound at pH 7.5 by RP-HPLC analysis
- Format: physicochemical
- assay.context: buffer
measurement.type: logD

For NS(=O)(=O)c1cc(NC(=O)Cc2ccccc2Cl)ccc1Oc1cccc(Cl)c1 , what is its reported logD?
3

For NS(=O)(=O)c1cc(NC(=O)Cc2cc(F)ccc2Cl)ccc1OCC1CCOCC1 , what is its reported logD?
2.2

For NS(=O)(=O)c1cc(NC(=O)Cc2ccccc2C(F)(F)F)ccc1Oc1cccc(Cl)c1 , what is its reported logD?
3.3

For NS(=O)(=O)c1cc(NC(=O)Cc2ccccc2Cl)ccc1OCC1CCOCC1 , what is its reported logD?
2.2

For NS(=O)(=O)c1cc(NC(=O)Cc2ccccc2)ccc1Oc1cccc(Cl)c1 , what is its reported logD?
2.8

# credit: ChEMBL document CHEMBL4321858
